Where do these numbers come from? They come from patent US20240270751A1.

biological target: DGKζ (Homo sapiens (Human)); test: Biochemical DGK IC50 assay, DGKζ ADP-Glo assay; conditions: 0.5 nM enzyme, 140 μM ATP, 80 μM DAG; read-out: DGKζ ADP-Glo assay IC50
Sequence (Q13574 other isoform, or with tags, fused parts or gaps): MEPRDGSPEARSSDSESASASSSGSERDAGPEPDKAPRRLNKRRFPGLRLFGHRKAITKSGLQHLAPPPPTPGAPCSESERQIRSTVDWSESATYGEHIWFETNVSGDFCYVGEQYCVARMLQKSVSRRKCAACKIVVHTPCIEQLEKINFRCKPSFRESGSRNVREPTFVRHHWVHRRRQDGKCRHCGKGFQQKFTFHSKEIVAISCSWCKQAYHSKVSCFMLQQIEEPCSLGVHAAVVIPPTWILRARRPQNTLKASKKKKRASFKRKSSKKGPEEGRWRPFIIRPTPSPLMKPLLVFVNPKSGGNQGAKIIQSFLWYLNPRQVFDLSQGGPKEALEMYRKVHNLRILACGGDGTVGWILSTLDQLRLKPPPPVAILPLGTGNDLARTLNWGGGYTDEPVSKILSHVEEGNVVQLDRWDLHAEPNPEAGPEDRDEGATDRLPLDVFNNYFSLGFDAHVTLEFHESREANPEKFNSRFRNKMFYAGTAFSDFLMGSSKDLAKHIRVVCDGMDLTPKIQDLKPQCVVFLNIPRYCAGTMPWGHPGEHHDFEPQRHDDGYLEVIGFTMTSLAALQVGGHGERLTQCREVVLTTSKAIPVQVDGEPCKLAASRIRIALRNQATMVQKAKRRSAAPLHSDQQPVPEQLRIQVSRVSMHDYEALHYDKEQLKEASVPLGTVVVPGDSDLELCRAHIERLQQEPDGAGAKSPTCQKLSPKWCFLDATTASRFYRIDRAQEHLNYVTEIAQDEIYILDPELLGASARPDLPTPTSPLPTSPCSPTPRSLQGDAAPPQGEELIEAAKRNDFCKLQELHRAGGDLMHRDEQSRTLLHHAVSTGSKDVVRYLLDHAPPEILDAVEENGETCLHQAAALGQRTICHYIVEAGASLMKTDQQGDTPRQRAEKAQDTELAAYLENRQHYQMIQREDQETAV
pIC50: −log10 of the molar value.
Listed next: entries and their corresponding pIC50.

Previously resolved entries follow.
CC(c1ccc2nccnc2c1)N1C[C@H](C)N(c2cc(=O)n(C)c3c[nH]nc23)C[C@H]1C (stereo partly drawn) : < 3.82
Cc1c2c(nn1CC#N)c(N1C[C@@H](C)N(C(C)c3ccc(F)cc3C(F)(F)F)C[C@@H]1C)nc(=O)n2C (single isomer, unassigned) [Compound A267a] : < 5.00

Recorded pIC50 of `COc1c(N2C[C@@H](C)N([C@@H](C)c3ccc4nccnc4c3)C[C@@H]2C)c2nn(CC#N)cc2n(C)c1=O` , please. < 5.00
